Molecular target: Cysteinyl leukotriene receptor 1 (Cavia porcellus)
Assay: In vitro for antagonistic activity against LTD4 receptor in guinea pig ileum
Readout Name: IC50 (nM)
The response must be a number in nM with no trailing unit.

O=C(CC1(C(=O)O)CCCC1)Nc1cccc(OCc2ccc3ccc(F)cc3n2)c1 = 10
CCC(CC)(CC(=O)Nc1cccc(OCc2ccc3ccc(Br)cc3n2)c1)C(=O)O = 4
CC(C)(CC(=O)Nc1cccc(OCc2ccc3ccc(F)cc3n2)c1)C(=O)O = 1.4
CCC(CC)(CC(=O)Nc1cccc(OCc2ccc3ccccc3n2)c1)C(=O)O = 0.9

Field request: IC50 | item: "CCC(CC)(CC(=O)Nc1cccc(OCc2ccc3cc(F)c(F)cc3n2)c1)C(=O)O"
0.5

Request: CCC(C)(CC(=O)Nc1cccc(OCc2ccc3ccc(F)cc3n2)c1)C(=O)O (stereo not given)
6.4

What do we get for "CCC(CC)(CC(=O)Nc1cccc(/C=C/c2ccc3ccc(F)cc3n2)c1)C(=O)O" ?
0.4

Consider next the compound "CCC(CC)(CC(=O)Nc1cccc(OCc2ccc3ccc(OC)cc3n2)c1)C(=O)O" in the same way.
80
